Target: human recombinant KAT-II (Homo sapiens (Human), UniProt Q8N5Z0)
Sequence (Q8N5Z0 30-425): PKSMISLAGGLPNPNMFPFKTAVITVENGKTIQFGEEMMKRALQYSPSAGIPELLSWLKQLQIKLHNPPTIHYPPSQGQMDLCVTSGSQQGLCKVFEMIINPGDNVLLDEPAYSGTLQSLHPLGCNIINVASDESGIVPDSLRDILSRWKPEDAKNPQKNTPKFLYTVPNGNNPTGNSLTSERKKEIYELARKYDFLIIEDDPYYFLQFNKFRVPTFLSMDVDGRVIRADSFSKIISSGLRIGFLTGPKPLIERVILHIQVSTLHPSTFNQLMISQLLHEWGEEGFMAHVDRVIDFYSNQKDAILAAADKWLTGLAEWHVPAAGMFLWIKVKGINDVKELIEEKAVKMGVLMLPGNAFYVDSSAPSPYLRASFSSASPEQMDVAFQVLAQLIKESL
Assay: KAT-II inhibitory test
Settings: 3.0 μmol/L kynurenine, 37° C., 1 hr, pH 8.0; kynurenic acid quantified by HPLC
pIC50: −log10 of the molar value.
Returns one of t or f; t when pIC50 is >= 7.

In [3]: df
Out[3]:
                                    molecule                                testsystem  cat
 0  Cn1c(-c2ccccc2)nc2sc(N3CC[C@@H](N)[C@@H]3C(=O)NCc3ccccc3)nc2c1=O [Example 611]  human recombinant KAT-II (Homo sapiens (Human), UniProt Q8N5Z0)    f
 1  CC(C)c1cc(=O)n2nc([C@H]3CCCN3C(=O)Nc3ccccc3)sc2n1 [Example 160]  human recombinant KAT-II (Homo sapiens (Human), UniProt Q8N5Z0)    f
 2  O=C(NCc1ccccc1)[C@H]1CCCN1c1nc2c(=O)n3c(nc2s1)C(F)(F)CCC3 [Example 605]  human recombinant KAT-II (Homo sapiens (Human), UniProt Q8N5Z0)    t
 3  CCn1c(C(F)F)nc2sc(N3CCC[C@@H]3C(=O)NCc3cc(C)nn3C)nc2c1=O [Example 313]  human recombinant KAT-II (Homo sapiens (Human), UniProt Q8N5Z0)    f
 4  CCc1nc2sc([C@H]3CCCN3C(=O)CN3CCCc4ccccc43)nc2c(=O)n1C [Example 14]  human recombinant KAT-II (Homo sapiens (Human), UniProt Q8N5Z0)    t
 5  Cn1c(C2(C#N)CC2)nc2sc(N3CCC[C@@H]3C(=O)NCc3ccccc3)nc2c1=O [Example 573]  human recombinant KAT-II (Homo sapiens (Human), UniProt Q8N5Z0)    t
 6  CCc1cc(=O)n2nc(N3CCOC[C@@H]3C(=O)NCc3ccccc3)sc2n1 [Example 645]  human recombinant KAT-II (Homo sapiens (Human), UniProt Q8N5Z0)    f
 7  CCc1nc2sc([C@H]3CCCN3C(=O)Oc3ccccc3)nc2c(=O)n1C [Example 28]  human recombinant KAT-II (Homo sapiens (Human), UniProt Q8N5Z0)    t
 8  CN(Cc1nc2sc(N3CCC[C@@H]3C(=O)NCc3ccccc3)nc2c(=O)n1C)CC(F)(F)F [Example 333]  human recombinant KAT-II (Homo sapiens (Human), UniProt Q8N5Z0)    t
 9  C[C@@H](NC(=O)[C@H]1CCCN1c1nc2c(=O)n(C)c(C(C)(F)F)nc2s1)c1ccccc1 [Example 267]  human recombinant KAT-II (Homo sapiens (Human), UniProt Q8N5Z0)    t
10  C[C@H](C(=O)NCc1ccccc1)N(C)c1nc2c(=O)[nH]c(-c3ccccc3F)nc2s1 [Example 532]  human recombinant KAT-II (Homo sapiens (Human), UniProt Q8N5Z0)    t

* * *

Target: human recombinant KAT-II (Homo sapiens (Human), UniProt Q8N5Z0)
Assay: KAT-II inhibitory test
Settings: 3.0 μmol/L kynurenine, 37° C., 1 hr, pH 8.0; kynurenic acid quantified by HPLC
pIC50: −log10 of the molar value.
attributeMeasured: pIC50

>>> print(df.to_string())
                                 smilesrepr                                testsystem  numericresult
0  Cc1cc(F)c(-c2nc3sc(N4CCC[C@@H]4C(=O)NCc4ccccc4)nc3c(=O)[nH]2)s1  human recombinant KAT-II (Homo sapiens (Human), UniProt Q8N5Z0)           7.77
1  CCc1c(C)nc2sc([C@H]3CCCN3C(=O)Oc3ccccc3)nn2c1=O  human recombinant KAT-II (Homo sapiens (Human), UniProt Q8N5Z0)           6.64
2  O=C(NCc1ccccc1)[C@H]1CCCN1c1nc2c(=O)[nH]c(N3CCC[C@H]3C(F)(F)F)nc2s1  human recombinant KAT-II (Homo sapiens (Human), UniProt Q8N5Z0)           7.37
3  O=C(Oc1ccccc1)N1CCC[C@@H]1c1nn2c(=O)c3c(nc2s1)CCCC3  human recombinant KAT-II (Homo sapiens (Human), UniProt Q8N5Z0)           6.80
